Below, each of the binders is paired with its reported Kd value.
Target desc: T1, recombinant human ErbB3 monomeric protein (cleaved rhErbB3) (human, UniProt P21860 20-643, limits assumed)
T1 construct: Monomer made by protease cleavage of the Fc fusion; also called Monomeric ErbB3
Test method notes: SPR Biacore 37 C; supernatant antibody captured on anti-human Fc, cleaved rhErbB3 injected
Protocol: The analyses were performed at 37° C. using PBS (Invitrogen, Catalog No. 14040-133) containing 0.05% surfactant P20 (Biacore, Catalog No. BR-1000-54) as running buffer. The antibodies were captured in individual flow cells at a flow rate of 60 l/minute. […] The dissociation phase was monitored for up to 1200 seconds. […] Kinetic parameters were determined using the kinetic function of the BIAevaluation software (Biacore) with double reference subtraction. […]
Value expressed in nM; do not type the unit.

Examples with answers:
| Binder | Endpoint unit | Quantitative result |
| --- | --- | --- |
| Sh24C05-34 (antibody, human IgG1, kappa, V domains shown, Humanized, human IgG1/kappa) VH: EVQLLESGGGLVQPGGSLRLSCAASGFTFSDYAMSWVRQAPGKGLEWVSTISDGGTYTYYPDNVKGRFTISRDNSKNTLYLQMNSLRAEDTAVYYCAREWGDYDGFDYWGQGTLVTVSS VL: DIQMTQSPSSLSASVGDRVTITCRASQEISGYLSWYQQKPGKAPKLLIYAASTLDSGVPSRFSGSGSGTDFTFTISSLQPEDIATYYCLQYDSYPYTFGQGTKLEIKR | nM | 0.552 |
| Sh24C05-39 (antibody, human IgG1, kappa, V domains shown, Humanized, human IgG1/kappa) VH: EVQLVESGGGLVKPGGSLRLSCAASGFTFSDYAMSWVRQAPGKGLEWVSTISDGGTYTYYPDNVKGRFTISRDNAKNSLYLQMNSLRAEDTAVYYCAREWGDYDGFDYWGQGTLVTVSS VL: DIQLTQSPSFLSASVGDRVTITCRASQEISGYLSWYQQKPGKAPKLLIYAASTLDSGVPSRFSGSGSGTEFTLTISSLQPEDFATYYCLQYDSYPYTFGQGTKLEIKR | nM | 0.819 |

Let us examine a further case.
q: Fill blank: measured Kd of the binder Sh24C05-46 (antibody, human IgG1, kappa, V domains shown, Humanized, human IgG1/kappa) VH: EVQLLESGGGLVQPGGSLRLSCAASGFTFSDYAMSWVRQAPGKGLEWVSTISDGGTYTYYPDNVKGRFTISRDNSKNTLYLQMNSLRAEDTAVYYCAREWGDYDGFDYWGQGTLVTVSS VL: DIQMTQSPSSLSASVGDRVTITCRASQEISGYLSWYQQKPGKAPKLLIYAASTLDSGVPSRFSGSGSGTDFTLTISSLQPEDFATYYCLQYDSYPYTFGQGTKLEIKR is ____.
a: 0.551
